B1: library; numbered along this chain (parent)
chain: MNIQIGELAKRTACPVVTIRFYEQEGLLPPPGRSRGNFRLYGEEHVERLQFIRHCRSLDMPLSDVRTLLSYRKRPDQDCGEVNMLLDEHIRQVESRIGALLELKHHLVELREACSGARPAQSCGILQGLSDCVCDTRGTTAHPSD

Variants of: B1
Procedure details: sfGFP reporter fluorescence (15 h) (µM FITC); higher = stronger transcriptional activation
Condition description: library round: Round 0; ligand: 1 µM Pb
Result type: sfGFP reporter fluorescence
Please give the numeric answer without any surrounding text.

Variant identifier	Result type	Experimental value
E109T	sfGFP reporter fluorescence	0.0935
Y22R	sfGFP reporter fluorescence	0.0658
L129W	sfGFP reporter fluorescence	0.0605

query: Given `L8A` , respond with its sfGFP reporter fluorescence.
result: 0.0667

query: Give the value of sfGFP reporter fluorescence reported for the following: `Y22G`
result: 0.0585

query: Return value of sfGFP reporter fluorescence for input `K73A` , no commentary.
result: 0.0676

query: Return value of sfGFP reporter fluorescence for input `P30T` , no commentary.
result: 0.0887

query: Assign sfGFP reporter fluorescence to the following record: `G36P`
result: 0.0583

query: Write down sfGFP reporter fluorescence measured for item `V46H`
result: 0.0738
